assay: yeast display, Sf9 membrane polyspecificity reagent, FACS + sequencing; frameworks hold sequencing errors
QUANTITY_KIND: polyreactivity (PSR sort gate)

Some solved entries appear below for comparison.
RESIDUE_STRING	polyreactivity (PSR sort gate)
QVQLVESGGGLVQAGGSLRFTCAASGRIFRTNAMGWYRQAHGKEREFVAAISKDGGRTYYADSVKGRFTISRDNAKNTVYLQMNSLKPEDTAVFYCNVLVKHSTTTYSTYDYWGQGSQVTVSS	high polyreactivity
QVQLVESGGGLVQAGGSLRLSCAASGRIFSGYAMGWYRQAPGKERELVAAITSGASTNYADSVKGRFTISRDNAKNTVYLQMNSLKPEDTAVYYCAATYHTWRGQYLWYDYWGQGTQVTVSW	low polyreactivity
QVQLVESGGGLVQAGGSLRLSCAASGLTFSYYAMGWYRPAPGKERELVAAITSSGGNTYYADSVKGRFTISRDYAKNTVYLQMNSLKPEDTAGDSCTARRYLRGYGYGYWGQGTQVTVSS	high polyreactivity
QVQLVESGGGLVQAGGSLRLSCAASGRIFTTYAMGWYRPAPGKERELVAAISQNGGSTYYADSVKGRFTISRDNAKNTVFLQMNSLKPEDTAVYYCNAGPAGYYDYDYWGQGTLVTVSS	low polyreactivity

--- query ---
// polyreactivity (PSR sort gate) value for QVQLQESGGGLVQAGGSQRLSCAASGYIFYFQYMGWYRQAPGKELEFVAAISDGANTNYADSVKGRITISRDNAKNTEYLQMNSLKPEDTAVYYCAVYADENDYYIYWGQGTQVTVSS : low polyreactivity

----------
assay: yeast display, Sf9 membrane polyspecificity reagent, FACS + sequencing; frameworks hold sequencing errors
QUANTITY_KIND: polyreactivity (PSR sort gate)

RESIDUE_STRING	polyreactivity (PSR sort gate)
QVQLVESGGGLVQAGGSLRLSCPASGYTFYVYAMGWYRQAPGKERELVAAIGGGSTNYADSVKGRFTISRDNAKNTVYLQMNSLKPEDTAVYYCAARRYYKFYYWGQGTQVTVSS	high polyreactivity
QVQLVESGGGLVQAGGSLRLSCASSGSTFKRYAMGWYRQAPGKERELVAAITLSGGNTYYADSVKGRFTISRDTAKNTVYLQLNSLKPEDTAVYYCAARRYRGYDYWGQGTQVTVTS	high polyreactivity
QVQLVESGGGLVQAGGSLRLSCAASGSIFSSNAMGWYRQAPGKDRELVASISWTGGNTYADSVKGRFTISRDNAKNTVYLQMNSLKPEDTAVYYCNAGRSWDYWYGYDYWGQGTQVTVSS	low polyreactivity
QVQLVESGGGLVQAGGSLRLSCAASGSIFVRYAMGWYRQAPGKERELVASIRSRGDSTYYADSVKGRFTISRDNAKNTVYLQMNSLKPEDTAVYYCAGRRYPPRMDYWGQGTQVTVSS	high polyreactivity
QVQLVESGGALVQAGGSLRLSCAASGRTFGLTAMGWYRQAPGKERELVAAITWSDDDTYYADSVKARFTNSRDNAKNTVYLQMNSLKPEDTAVYYCAATYPYRQYDYWGQGTQVTVSS	low polyreactivity
QVQLVESGGGLVQAGGSLRLSCAASGRTIWWYAMGWYRQAPGKERELVAAITWIGGSTYYADSVKGRFTISRDNAKNTVYLKMNSLKPEDTAVYFCNVVYYGRTWVPYEWEYDYWGQGTQVTVSS	low polyreactivity

Hi, could you look up polyreactivity (PSR sort gate) for each item in my list?
1. QVQLVESGGGLVQAGGSLRLSCAASGRIFDTYVMRWYRQAPGKERELVAAISGSGGSTYYADSVKGRFTISRDTAKNTVYLQMNSLKPEDTAVYYCAAVVLGRLLGFRGDYNYWGQGPQVTVSS
2. QVQLVESGGGLVQAGGSLRLSCAASGRIFGYYAMGWYRPAPGKEMELVAAIRYSSGRTYYADSVKGRFTISRDNAKNTVYLQMNSLKPEDTAVYYCAAKDQATYQLNYWGQGTQVTVSS
3. QVQLVESGGGLVQAGGSLRLSCAASGSTFVRNAMGWYRQAPGKERELVAAITSSGGSTYYADSVKGRFTISRDNAKNTVYLQMNSLKPEDTAVYYCAKRRYYRYDYWGQGTQVTVSS
4. QVQLVESGGVLVQAGGRLRLSCAASGLTFYLYAMGWYRQAPGKQREFVAAISRSGTSTYYADSVKGRFTISRDYAKNTVNLQKNSLKPDDTAVYYCAALNYHKFAHKYDYWGQGTPVTVSS
5. QVQLVESGGGLVQAGGSLRLSCAASGNIFDLYAMGWYRQAPGKERELVAAITRSSSRTYYADSVKGRFTISRDNAKNTVYLQMNSLKPEDTAVYYCRAKQVNRFDYWGQGTQVTVSS

[reply]
1. high polyreactivity
2. high polyreactivity
3. low polyreactivity
4. low polyreactivity
5. high polyreactivity

# map each sequence to its polyreactivity (PSR sort gate)
1. QVQLVESGGGLVQAGGSLRLSCAASGITFVDNAMGWYRQAPGKERELVAAISFSGDTTYYADSVKGRFTISRDNEKNTVYLQMNSLKPEDTAVYYCAAEYYYTWVYQYWEMDYWGQGTQVTVSS
2. QVQLVESGGGLVQAGGSLRYSCAASGSIFYWYAMGWDRQAPGKERELVAGITYSGGNTYYADSVKGRFTISRDNAKNTVYLQMNSLKPEDTAVYDCAATRGYWRKWRMDYWGQGTQVTVSS

[reply]
low polyreactivity
high polyreactivity
